Entries and their pIC50
TESTED_SYSTEM: type III phosphodiesterase
EXPERIMENT_DESCRIPTION: Phosphodiesterase inhibition activity (in vitro), Type III
Remember, pIC50 is on a log scale: it is -log10 of the molar concentration.

SMILES_INPUT	REPORTED_ENDPOINT	MEASURED_NUMBER
CCn1c(=O)cc(-c2cccc(Cl)c2)c2cccnc21	pIC50	4.30
CCn1c(=O)cc(-c2cccc(Br)c2)c2c(C)cc(C)nc21	pIC50	4.96
CCc1cc(C)c2c(-c3cccc(Cl)c3)cc(=O)n(C)c2n1	pIC50	4.81

compound "CCCn1c(=O)cc(-c2cccc(Br)c2)c2c(C)cc(CC)nc21" , pIC50 observed: 4.75

According to the records, this compound "Cc1cc(C)c2c(-c3cccc(Cl)c3)cc(=O)n(C)c2n1" displays pIC50 of 4.67

Entry under test: "CCc1cc(C)c2c(-c3cccc(Cl)c3)cc(=O)n(C3CC3)c2n1" . Its pIC50 was 4.46

Form field pIC50, entry "CCn1c(=O)cc(-c2cccc(Cl)c2)c2c(C)cc(C)nc21" : 4.84

# compound "CCc1cc(C)c2c(-c3ccccc3)cc(=O)n(CC)c2n1" ; its pIC50 = 4.49

---

Entries and their measured IC50 follow.
TESTED_SYSTEM: type III phosphodiesterase
EXPERIMENT_DESCRIPTION: Phosphodiesterase inhibition activity (in vitro), Type III
Express your answer in µM, writing the number without its unit.

COMPOUND	REPORTED_ENDPOINT	MEASURED_NUMBER
CCc1cc(C)c2c(-c3ccccc3)cc(=O)n(C)c2n1 [Example 26]	IC50	56.2

Looking up CCc1cc(C)c2c(C3CCCCC3)cc(=O)n(CC)c2n1 [Example 49] , I found its IC50 recorded as 27.3

---

TESTED_SYSTEM: type II phosphodiesterase (Rattus norvegicus)
Sequence (Q01062 1-928): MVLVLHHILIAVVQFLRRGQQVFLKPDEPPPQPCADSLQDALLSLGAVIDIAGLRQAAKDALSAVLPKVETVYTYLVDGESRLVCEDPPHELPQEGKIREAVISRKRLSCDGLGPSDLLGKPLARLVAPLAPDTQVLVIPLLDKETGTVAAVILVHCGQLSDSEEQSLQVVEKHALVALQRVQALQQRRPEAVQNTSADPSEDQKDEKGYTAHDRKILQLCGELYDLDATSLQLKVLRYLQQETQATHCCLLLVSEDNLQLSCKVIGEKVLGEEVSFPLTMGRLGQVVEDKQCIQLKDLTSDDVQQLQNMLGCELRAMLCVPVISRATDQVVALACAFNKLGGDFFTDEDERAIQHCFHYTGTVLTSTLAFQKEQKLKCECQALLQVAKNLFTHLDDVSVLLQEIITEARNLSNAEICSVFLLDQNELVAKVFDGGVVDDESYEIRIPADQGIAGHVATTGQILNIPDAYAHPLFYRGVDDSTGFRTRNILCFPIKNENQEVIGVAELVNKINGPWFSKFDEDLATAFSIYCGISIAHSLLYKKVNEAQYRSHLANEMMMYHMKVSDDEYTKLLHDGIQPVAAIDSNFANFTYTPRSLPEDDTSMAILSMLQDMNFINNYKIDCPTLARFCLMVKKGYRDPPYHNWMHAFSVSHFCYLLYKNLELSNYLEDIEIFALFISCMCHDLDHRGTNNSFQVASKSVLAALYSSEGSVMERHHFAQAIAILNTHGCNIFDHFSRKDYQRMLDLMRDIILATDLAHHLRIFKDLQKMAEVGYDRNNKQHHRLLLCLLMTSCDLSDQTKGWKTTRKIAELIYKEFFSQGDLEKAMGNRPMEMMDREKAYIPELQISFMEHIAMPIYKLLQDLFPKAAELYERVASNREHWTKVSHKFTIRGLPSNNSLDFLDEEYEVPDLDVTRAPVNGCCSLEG
REPORTED_ENDPOINT: IC50 (µM)
Report the figure in µM without appending any unit label.

Please review the entries below; each comes with its answer.
SMILES_INPUT	IC50 / µM
CCc1cc(C)c2c(-c3ccccc3)cc(=O)n(CC)c2n1	20.5
CCCn1c(=O)cc(-c2cccc(Br)c2)c2c(C)cc(CC)nc21	35.4
CCn1c(=O)cc(-c2cccc(Cl)c2)c2cccnc21	20.8
CCc1cc(C)c2c(C3CCCCC3)cc(=O)n(CC)c2n1	22.8
CCc1cc(C)c2c(-c3cccc(Cl)c3)cc(=O)n(C)c2n1	25.6

The compound listed as "CCc1cc(C)c2c(-c3ccccc3)cc(=O)n(C)c2n1" has a reported IC50 of 30

Query "CCc1cc(C)c2c(-c3cccc(Cl)c3)cc(=O)n(C3CC3)c2n1" yields IC50 of 22.3

---

Listed here are molecules together with their documented IC50.
TESTED_SYSTEM: type IV phosphodiesterase
EXPERIMENT_DESCRIPTION: Phosphodiesterase inhibition activity (in vitro), Type IV
Description: (1) Method for measuring type IV phosphodiesterase inhibition activity The following assay was used for the evaluation of the capability of the compounds of the present invention to inhibit type IV phosphodiesterase. 1) Physiological saline (200 ml) supplemented with dextran (3%) was added to 500 ml of heparinized peripheral blood of a healthy person and incubated at 37° C. for 40 minutes to effect precipitation of erythrocytes. […]
Use µM as the unit, but write only the number.

Past entries and their recorded results:
MOLECULE	UNITS_TEXT	IC50
CCc1cc(C)c2c(C3CCCCC3)cc(=O)n(CC)c2n1 [Example 49]	µM	30.2
CCc1cc(C)c2c(-c3ccccc3)cc(=O)n(CC)c2n1 [Example 40]	µM	31.9
Cc1cc(C)c2c(-c3cccc(Cl)c3)cc(=O)n(C)c2n1 [Example 24]	µM	98.3

Attention now shifts to the item below.
Let me check: CCn1c(=O)cc(-c2cccc(Br)c2)c2c(C)cc(C)nc21 [Example 30] , system type IV phosphodiesterase, measured IC50 is 31.2

---

TESTED_SYSTEM: type V phosphodiesterase (Homo sapiens)
EXPERIMENT_DESCRIPTION: Phosphodiesterase inhibition activity (in vitro), Type V
MEASUREMENT_PARAMETERS: 1 μM cGMP
IC50 reference

Record excerpt, results attached:
COMPOUND	IC50
CCn1c(=O)cc(-c2cccc(Cl)c2)c2cccnc21	41.2 µM
CCc1cc(C)c2c(-c3ccccc3)cc(=O)n(C)c2n1	27.3 µM

For "CCn1c(=O)cc(-c2ccccc2)c2c(C)cc(C)nc21" the compound record lists IC50 as 19.6 µM

IC50 reported for this compound "CCc1cc(C)c2c(-c3cccc(Cl)c3)cc(=O)n(C3CC3)c2n1" : 41.6 µM

For "CCn1c(=O)cc(-c2cccc(Br)c2)c2c(C)cc(C)nc21" the compound record lists IC50 as 8.66 µM

Recorded result, "CCc1cc(C)c2c(C3CCCCC3)cc(=O)n(CC)c2n1" , IC50: 3.87 µM

Briefly, IC50 measured for "CCCn1c(=O)cc(-c2cccc(Br)c2)c2c(C)cc(CC)nc21" : 8.39 µM

// IC50 lookup, compound = "CCc1cc(C)c2c(-c3cccc(Cl)c3)cc(=O)n(CC)c2n1" , result: 1.05 µM

Given item "CCc1cc(C)c2c(-c3cccc(Cl)c3)cc(=S)n(C)c2n1" , the value recorded as its IC50 is 4.79 µM

Field IC50 (entry CCn1c(=O)cc(C2CCCCC2)c2cccnc21 [Example 46, hydrate] ) reads 87 µM

---

TESTED_SYSTEM: type I phosphodiesterase
EXPERIMENT_DESCRIPTION: Phosphodiesterase inhibition activity (in vitro), Type I
REPORTED_ENDPOINT: pIC50
Scale: pIC50 equals -log10([C]), with [C] in mol/L.

// solved cases for pIC50 follow
COMPOUND	pIC50
CCn1c(=O)cc(-c2cccc(Cl)c2)c2cccnc21 [Example 15]	7.47
CCc1cc(C)c2c(-c3cccc(Cl)c3)cc(=O)n(C)c2n1 [Example 27]	7.67
CCc1cc(C)c2c(-c3ccccc3)cc(=O)n(CC)c2n1 [Example 40]	7.89

Kindly note the recorded pIC50 for CCn1c(=O)cc(-c2cccc(Br)c2)c2c(C)cc(C)nc21 [Example 30] , which is 8.00

GET /value?item= CCn1c(=O)cc(C2CCCCC2)c2cccnc21 [Example 46, hydrate] &field=pIC50 returns 7.41

# compound CCc1cc(C)c2c(-c3cccc(Cl)c3)cc(=O)n(C3CC3)c2n1 [Example 35] ; its pIC50 = 7.62

Item: CCn1c(=O)cc(-c2cccc(Cl)c2)c2c(C)cc(C)nc21 [Example 29] | pIC50: 7.94

The measured pIC50 associated with CCc1cc(C)c2c(-c3cccc(Cl)c3)cc(=S)n(C)c2n1 [Example 43] reads 7.80
